tested on: 134 cancer cell lines; assay: Cell viability assay (ATPlite, 72 hours), IC50 on cancer cell line panel; conditions: Rh30, read-out: IC50 in cell proliferation assay, cell line Rh30
pIC50: −log10 of the molar value.
Label true for high-side pIC50 (at or above 6) and false for low-side pIC50 (below it).

COMPOUND SMILES | CLASS ASSIGNMENT
CO[C@]1(C(=O)N[C@@H](C)c2ccc(-n3cc(F)cn3)nc2)CC[C@H](c2nc(C)cc(Nc3cc(C)[nH]n3)n2)CC1 | false
CCN1CCN(c2ccc(Nc3cc(N(C)C(=O)Nc4c(Cl)c(OC)cc(OC)c4Cl)ncn3)cc2)CC1 | true

Does the reported pIC50 for O=C(Nc1cnn2ccc(N3CCC[C@@H]3c3cc(F)ccc3F)nc12)N1CC[C@H](O)C1 fall at or above the 6 mark?
false

Does the reported pIC50 for O=C(c1ccc(F)c(F)c1Nc1ccc(I)cc1F)N1CC(O)([C@@H]2CCCCN2)C1 fall at or above the 6 mark?
false

Does the reported pIC50 for FC(F)(F)c1ccc(CNc2ccc(Cc3c[nH]c4ncc(Cl)cc34)cn2)cn1 fall at or above the 6 mark?
false

----------
system: 134 cancer cell lines; experiment: Cell viability assay (ATPlite, 72 hours), IC50 on cancer cell line panel; details: Homo sapiens, A549, read-out: IC50 in cell proliferation assay
QUANTITY: pIC50
Please treat pIC50 as minus the base-10 logarithm of the molar concentration.

Lab book: pIC50 of C[C@H]1Oc2cc(cnc2N)-c2c(nn(C)c2C#N)CN(C)C(=O)c2ccc(F)cc21 noted as 5.64

----------
system: 134 cancer cell lines; assay: Cell viability assay (ATPlite, 72 hours), IC50 on cancer cell line panel; conditions: Homo sapiens, HT, read-out: IC50 in cell proliferation assay
QUANTITY: IC50 (µM)
The figure you give is taken to be in µM; do not add the unit.

COMPOUND | QUANTITY | TEST VALUE
Cn1cc(-c2cc3c(N4CCN(c5ncc([C@@](C)(N)c6ccc(F)cc6)cn5)CC4)ncnn3c2)cn1 [avapritinib] | IC50 | 22.9

Lab book: IC50 of C=CC(=O)N1CCC[C@@H](n2nc(-c3ccc(Oc4ccccc4)cc3)c3c(N)ncnc32)C1 [ibrutinib] noted as 0.902

----------
Entries and their pIC50 values follow.
test system: 134 cancer cell lines; assay: Cell viability assay (ATPlite, 72 hours), IC50 on cancer cell line panel; conditions: Homo sapiens, SUP-T1, read-out: IC50 in cell proliferation assay
Please treat pIC50 as minus the base-10 logarithm of the molar concentration.

COMPOUND | TEST VALUE
CCN1C(=O)N(c2c(F)c(OC)cc(OC)c2F)Cc2cnc3[nH]c(CN4CCOCC4)cc3c21 [pemigatinib] | 5.37
Cn1cc(-c2cc3c(N4CCN(c5ncc([C@@](C)(N)c6ccc(F)cc6)cn5)CC4)ncnn3c2)cn1 [avapritinib] | 5.04
CCn1c(=O)c(-c2cc(NC(=O)Nc3ccccc3)c(F)cc2Br)cc2cnc(NC)cc21 [ripretinib] | 5.61
COc1cc(N2CCC(N3CCN(C)CC3)CC2)ccc1Nc1ncc(Cl)c(Nc2ccccc2P(C)(C)=O)n1 [brigatinib] | 5.83

Record C[C@@H](Oc1cc(-c2cnn(C3CCNCC3)c2)cnc1N)c1c(Cl)ccc(F)c1Cl [crizotinib] ; system 134 cancer cell lines; pIC50 = 5.76
